Biological target: T1, human C5a (source not stated) (human, UniProt P01031 678-751)
T1 sequence: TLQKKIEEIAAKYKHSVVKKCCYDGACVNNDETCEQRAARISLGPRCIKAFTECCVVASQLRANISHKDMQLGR
Assay: cell-based or functional assay
readout_kind: ROS IC50 (nM)

1. Cab34 (reformatted as human IgG1) (antibody, V domains shown) VH: EMQLVESGGGLVQPGGSLRLSCAASGFTFSDYYMQWVRQAPGKGPEWVGLIRNKAVGGTTEYAASVKGRFTISRDDSKNSVYLQMNSLKTEDTAVYYCVSRAGPPGLSWGQGVLVTVSS VL: DIVMTQSPLSLPVTPGEPASISCRSSQSLLASDGYNYIDWYLQKPGQSPQLLIYGGSNRASGVPDRFSGSGSGTDFTLKISRVEAEDVGVYFCLQHRALPPTFGQGTKLEIK :: 1.61
2. Cab19 scFv (scFv, V domains shown) VH: EVQLVESGGGLVQPGGSLKVSCVASGFTFSDYYIQWVRQAPGKGPEWVGLIRNKAVGGTTSYAASVKGRFTISRDDSKSVAYLQMTSLKTEDTAVYFCVSRAGPPGLSWGQGVLVTVSS VL: DIVMIQNPLSLPVTPGEPASISCRSSQSLLHSDGYTYLDWYQQKPGQAPQLLIYGGSNRASGVPDRFSGSGSATDFTLKISKMEAEDVGVYYCMQHKALPPTFGGGTKVEIK :: 1.32
3. Cab23 scFv (scFv, V domains shown) VH: EVQLVESGGGLVQPGGSLRLSCAASGFTFSDYYIQWVRQAPGKGPEWVGLIRNKAIGGTVEYAASVKGRFTISRDDSKRIAYLQMRSLKTEDTAVYFCTGRVGPPGLTWGQGVLVTISS VL: DAVMTQTPLSLPVTPGEPASISCRSSQSLLASDGYNYIDWYLQRPGQSPKVLIYGGSNRASGVPDRFSGSGSGTYFTLKISKVEAEDVGFYFCLQHRALPPTFGQGTKLEIK :: 0.92

Source of measurements: patent US20230257454A1
